Reference for the values: PubChem BioAssay (NCATS)

MEASUREMENT TARGET: Aldehyde dehydrogenase, mitochondrial (Homo sapiens)
ASSAY INFO: qHTS for Inhibitors of the Aldehyde Dehydrogenase Family (ALDH2) Primary screen (AID 2061308);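 also: plate controls were vehicle for no effect and reference inhibitor for full effect; nearly all actives have a fitted effect of over 55% in size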
CONDITION INFO: ALDH2 enzyme inhibition qHTS, 1536-well; series mostly up to 56 µM
Results filed as inconclusive are left out. Calls of active or inactive are those of the source. Calls follow the shape of the dose curve; as a rule, active = well fitted inhibition curve with a large enough effect; inconclusive = small, poorly fitted or top-dose-only effect; inactive = flat fitted curve, though single readings scatter.
MEASUREMENT KIND: activity change, negative = inhibition

Reference set, count: 5
COMPOUND | MEASUREMENT TARGET | MEASUREMENT KIND | VAL
C/C1=C/[C@@H](C)C/C=C/[C@H]2[C@@H]3O[C@]3(C)[C@@H](C)[C@H]3[C@H](Cc4c[nH]c5ccccc45)NC(=O)[C@]32C(=O)/C=C\C(=O)[C@@H]1O | Aldehyde dehydrogenase, mitochondrial (Homo sapiens) | activity change, negative = inhibition | inactive
CCC(C)(OC(C)=O)C(=O)O[C@H]1[C@H](OC(C)=O)C[C@@H]2[C@@](C)([C@@H]3C[C@H]4C=CO[C@H]4O3)[C@H](C)C[C@H](OC(C)=O)[C@@]2(COC(C)=O)[C@@]12CO2 (stereo partly specified) | Aldehyde dehydrogenase, mitochondrial (Homo sapiens) | activity change, negative = inhibition | inactive
COC1CC(O[C@H]2CC[C@]3(C=O)C4CC[C@]5(C)[C@@H](C6=CC(=O)OC6)CC[C@]5(O)[C@@H]4CC[C@]3(O)C2)OC(C)C1O[C@@H]1O[C@H](CO)[C@@H](O)[C@H](O)[C@H]1O (stereo partly specified) | Aldehyde dehydrogenase, mitochondrial (Homo sapiens) | activity change, negative = inhibition | inactive
CCCCCCn1c(=O)c(C(=O)Nc2ccc(C(=O)OCCC)cc2)c(O)c2ccccc21 | Aldehyde dehydrogenase, mitochondrial (Homo sapiens) | activity change, negative = inhibition | 11.3% [at 11.2 µM] (inactive)
CCOC(=O)C1CCN(C(=O)C2(NC(=O)Nc3ccccc3Cl)CCCC2)CC1 | Aldehyde dehydrogenase, mitochondrial (Homo sapiens) | activity change, negative = inhibition | inactive

Let us examine a further case.
Find the recorded activity change, negative = inhibition belonging to `C[N@@+]1(CC2CC2)CC[C@]23c4c5ccc(O)c4O[C@H]2C(=O)CC[C@@]3(O)[C@H]1C5` and report it.
inactive
